Parameter Ht: see the listing below.
# Species: Rattus norvegicus
# protocol: Open TG-GATES - Regimen: Single
# Format: toxicity, organism-based, Sprague-Dawley
# Parameters: regimen Single, gender Male, age 6 weeks
# applied conditions: in vivo, po, 100 mg/kg, 6 h, tissue Blood, route gavage, dose level Low
Report the value in % with no unit label.

compound	Ht, %
CCc1cc(C(N)=S)ccn1 [ETHIONAMIDE]	42.1
O=C(O)c1cc(/N=N/c2ccc(S(=O)(=O)Nc3ccccn3)cc2)ccc1O	38.5
Clc1ccccc1CN1CCc2sccc2C1	37.9

Now examine the next entry.
Fill blank: measured Ht of the compound `C[C@H](CS)C(=O)N1CCC[C@H]1C(=O)O` is ____.
39.5

Recorded values, source ChEMBL document CHEMBL3885861.
